Documented normalized growth across a set of molecules
PROTOCOL: chemical genetic growth profiling, strain panel (AID 1159580);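 note: tested at 20 µM; growth read once vehicle control cultures reached saturation at 30 °C; 1 = growth at the plate median or of vehicle wells; lower values mean less growth of the strain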
TEST_CONDITIONS: S. cerevisiae deletion strains, growth OD, locus YDR392W, strain spt3, stronger effect = lower value
Among all 5,500 compounds or so, about 2,000 (36%) were called active. Not shown: some 18% with an inconclusive outcome. The list shows a part of the results.

MOLECULE	normalized growth
COc1cc(OC)c(OC)cc1C=O	0.999
CN(C(=O)CN(CCO)CC(=O)N(C)C(C)(C)Cc1ccccc1)C(C)(C)Cc1ccccc1	0.981
CC1(C)C(O)CC(O)C2(C)C1CC(O)C1(C)C2CCC2(C)C(c3ccoc3)OC(=O)C3OC321 (stereo not drawn)	1.02
NC(N)=O	0.959
COc1c2ccoc2nc2c(OC)c(OCC(O)C(C)(C)O)ccc12 (stereo not drawn)	0.982
CCCC(CCC)C(=O)O	0.95
C=C1[C@H]2CC[C@@]3(C)[C@H](c4ccoc4)OC(=O)C[C@]13O[C@H]1C[C@H](O)C(C)(C)[C@H](CC(=O)OC)[C@]12C	0.927
Cc1nc2ccccn2c(=O)c1CCN1CCC(C(=O)c2ccc(F)cc2)CC1	0.988
C=C1C2CC[C@@]3(C)[C@H](c4ccoc4)OC(=O)C[C@]13O[C@H]1CC(=O)C(C)(C)C(CC(=O)OC)[C@@]21C (stereo partly drawn)	0.958
C=C1C2CCC3(C)C(c4ccoc4)OC(=O)CC13OC1CC(OC(C)=O)C(C)(C)C(CC(=O)OC)C12C (stereo not drawn)	1.01
NC(=O)c1ncn(C2O[C@H](CO)[C@@H](O)[C@H]2O)c1N (stereo partly drawn)	1
O=[N+]([O-])c1cccc2cn[nH]c12	1.02
CC(=O)O[C@H]1C[C@@H](OC(C)=O)C(C)(C)C2CC(=O)[C@]3(C)C(CC[C@@]4(C)[C@H](c5ccoc5)OC(=O)[C@H]5O[C@]543)[C@]21C (stereo partly drawn)	0.997
COc1c2ccccc2nc2occc12	0.767
S=P(N1CC1)(N1CC1)N1CC1	1.03
Nc1cc(C(Cl)=C(Cl)Cl)c(S(N)(=O)=O)cc1S(N)(=O)=O	0.978
C[C@@H]1CC2C3CCC4=CC(=O)C=C[C@]4(C)[C@@]3(F)[C@@H](O)C[C@]2(C)[C@H]1C(=O)CO (stereo partly drawn)	0.976
CO[C@]12C[C@@H](COC(=O)c3cncc(Br)c3)CN(C)[C@@H]1Cc1cn(C)c3cccc2c13	0.93
CNCCCN1c2ccccc2CCc2ccccc21	0.91
C[C@H](N)[C@H](O)c1cccc(O)c1	1.02
N[C@@H]1[C@@H](O)[C@H](O)[C@@H](CO)O[C@H]1O	1
CN(C)CCOC(=O)COc1ccc(Cl)cc1	0.974
Cc1cc(C)cc(OCC2CNC(=O)O2)c1 (stereo not drawn)	0.983
CC1CCC2(OC1)OC1CC3C4CCC5C[C@@H](O)CCC5(C)C4=CCC3(C)C1[C@@H]2C (stereo partly drawn)	0.994
CC(=O)OCC(=O)[C@@]1(O)[C@H](OC(C)=O)CC2C3CCC4=CC(=O)C=C[C@]4(C)[C@@]3(F)[C@@H](O)C[C@@]21C (stereo partly drawn)	0.913
NS(=O)(=O)c1cc2c(cc1Cl)NC(C1CC3C=CC1C3)NS2(=O)=O (stereo not drawn)	0.924
c1ccc2c(c1)CN1CCCC1=N2	0.919
Clc1ccc2c(c1)C(N1CCNCC1)=Nc1ccccc1O2	1.06
C=C1C2=CC(=O)O[C@@H](c3ccoc3)[C@]2(C)CCC1[C@@]1(C)C=CC(=O)C(C)(C)[C@@H]1CC(=O)OC (stereo partly drawn)	1.03
C=C[C@H]1CN2CC[C@H]1C[C@@H]2[C@H](O)c1ccnc2ccccc12	0.973
CCC(=O)Nc1ccc(Cl)c(Cl)c1	0.98
Nc1ccn(C2O[C@H](CO)[C@@H](O)[C@H]2O)c(=O)n1 (stereo partly drawn)	0.995
Cc1cc(=O)oc2c(O)c(O)ccc12	0.973
O=C(O)CCCOc1ccc(Cl)cc1Cl	0.893
Nc1ccncc1	0.994
CCCCS(=N)(=O)CCC(N)C(=O)O (stereo not drawn)	0.976
CN(CCC(N)CC(=O)N[C@H]1C=CC(n2ccc(N)nc2=O)O[C@@H]1C(=O)O)C(=N)N (stereo partly drawn)	0.262
CC(=O)Nc1ccccc1	0.993
CCN(CCCc1ccccc1)CCCc1ccccc1	0.951
C=C1C2CC[C@@]3(C)[C@H](c4ccoc4)OC(=O)C[C@]13O[C@H]1CC(O)C(C)(C)C(CC(=O)OC)[C@@]21C (stereo partly drawn)	0.97
NCC(CC(=O)O)c1ccc(Cl)cc1 (stereo not drawn)	0.928
C[C@H](CCC(=O)O)[C@H]1CCC2C3C(CC[C@@]21C)[C@@]1(C)CC[C@@H](O)C[C@H]1C[C@H]3O (stereo partly drawn)	0.923
OC[C@H]1OC([S-])[C@H](O)[C@@H](O)[C@@H]1O.[Au+] (stereo partly drawn)	1.03
